- Test system: 168753-222-R-J1-PDC complex spheroid viability;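 note: luminescence signal used as surrogate for viable cell amount; viability measured after seven days of drug exposure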
- PROTOCOL SUMMARY: Anticancer human tumor 168753-222-R-J1-PDC patient-derived bladder carcinoma cell line growth inhibition [CLK]; active = viability on the fitted dose curve at most 10% of control; inactive = the rest
- CONDITION: second compound 0.316 µM; first compound 1 µM
Please reply with one of these outcomes: T for active, F for inactive

{"MOLECULE": "CCc1c2c(nc3ccc(O)cc13)-c1cc3c(c(=O)n1C2)COC(=O)[C@]3(O)CC + CNC(=O)c1ccc(Nc2nc(OC3CCCC3)c3c(-c4ccc5nc(C)oc5c4)c[nH]c3n2)c(OC)c1", "CLASS LABEL": "F"}
{"MOLECULE": "CCN1CCN(Cc2ccc(Nc3ncc(F)c(-c4cc(F)c5nc(C)n(C(C)C)c5c4)n3)nc2)CC1 + CNC(=O)c1ccc(Nc2nc(OC3CCCC3)c3c(-c4ccc5nc(C)oc5c4)c[nH]c3n2)c(OC)c1", "CLASS LABEL": "F"}
{"MOLECULE": "CC(CO)NC(=O)c1cc(-c2ccc(Cl)cc2)nn(-c2cnn(C)c2)c1=O (centres undefined) + CN1CCN(c2cc(C(=O)Nc3cc4cc(-c5cnn(C)c5)ccc4cn3)ccn2)CC1", "CLASS LABEL": "F"}
{"MOLECULE": "C=CC(=O)N1CCN(c2nc(=O)n(-c3c(C)ccnc3C(C)C)c3nc(-c4c(O)cccc4F)c(F)cc23)C(C)C1 (centres undefined) + CNC(=O)c1ccc(Nc2nc(OC3CCCC3)c3c(-c4ccc5nc(C)oc5c4)c[nH]c3n2)c(OC)c1", "CLASS LABEL": "F"}
{"MOLECULE": "CC1COCCN1c1cc(C2(S(C)(=N)=O)CC2)nc(-c2ccnc3[nH]ccc23)n1 (centres undefined) + CN1CCN(c2cc(C(=O)Nc3cc4cc(-c5cnn(C)c5)ccc4cn3)ccn2)CC1", "CLASS LABEL": "T"}

## Input Hey, what did the test say about CC1(C)CCC(CN2CCN(c3ccc(C(=O)NS(=O)(=O)c4ccc(NCC5CCOCC5)c([N+](=O)[O-])c4)c(Oc4cnc5[nH]ccc5c4)c3)CC2)=C(c2ccc(Cl)cc2)C1 + CN1CCN(c2cc(C(=O)Nc3cc4cc(-c5cnn(C)c5)ccc4cn3)ccn2)CC1 ?
## Output T

## Input I would be grateful if you could indicate the recorded call for CC(Nc1ccc2c(c1)OCCn1cc(N3C(=O)OCC3C(F)F)nc1-2)C(N)=O (centres undefined) + CNC(=O)c1ccc(Nc2nc(OC3CCCC3)c3c(-c4ccc5nc(C)oc5c4)c[nH]c3n2)c(OC)c1 .
## Output F

## Input Could you check what this test reported for O=c1[nH]cc(F)c(=O)[nH]1 + CN1CCN(c2cc(C(=O)Nc3cc4cc(-c5cnn(C)c5)ccc4cn3)ccn2)CC1 ?
## Output T

## Input Lab log entry: O=C(c1cc(Cc2n[nH]c(=O)c3ccccc23)ccc1F)N1CCN(C(=O)C2CC2)CC1 + CNC(=O)c1ccc(Nc2nc(OC3CCCC3)c3c(-c4ccc5nc(C)oc5c4)c[nH]c3n2)c(OC)c1 — outcome as called in the assay?
## Output F

## Input Per the assay record, what outcome was assigned to COc1c(OCCCN2CCOCC2)ccc2c3n(c(=NC(=O)c4cnc(N)nc4)nc12)CCN3 + CNC(=O)c1ccc(Nc2nc(OC3CCCC3)c3c(-c4ccc5nc(C)oc5c4)c[nH]c3n2)c(OC)c1 ?
## Output T
